Test system: Annual bluegrass
Experiment: Post-emergence herbicide test
Format: in vivo
Conditions: 1.12 kg/ha, read-out: % plant inhibition (Anbg)
Give measured inhibition at 1120 g/ha for each item. Keep answers brief.
Answers are plain numbers, in %.

molecule	inhibition at 1120 g/ha, %
Cn1nc(-c2cc(C3OCCO3)c(Cl)cc2F)c(Cl)c1C(F)(F)F	100

Record inhibition at 1120 g/ha per entry; entries follow.
1. CCC(C)COC(=O)c1cc(-c2nn(C)c(C(F)(F)F)c2Cl)c(F)cc1Cl (stereo not drawn)
2. CCOC(=O)C(C)Oc1cc(-c2nn(C)c(C(F)(F)F)c2Cl)c(F)cc1Cl (stereo not drawn)
3. Cn1nc(-c2cc([N+](=O)[O-])c(Cl)cc2F)c(Cl)c1C(F)F
4. Cn1nc(-c2cc(O)c(Br)cc2F)c(Cl)c1C(F)(F)F
5. Cn1nc(-c2cc(OCc3ccc(Cl)s3)c(Cl)cc2F)c(Cl)c1C(F)(F)F
6. Cn1nc(-c2cc(C=NOCC(N)=O)c(Cl)cc2F)c(Cl)c1C(F)(F)F
7. Cn1nc(-c2cc(C3OCCS3)c(Cl)cc2F)c(Cl)c1C(F)(F)F (stereo not drawn)

Reply:
1. 100
2. 70
3. 50
4. 60
5. 90
6. 20
7. 90

---

Test system: Velvetleaf
Test: Pre-emergence herbicide test
Type: in vivo
Details: Abutilon theophrasti, 11.21 kg/ha, read-out: % plant inhibition (Vele)
Give measured inhibition at 11210 g/ha for each item. Keep answers brief.
Give bare numbers, in %.

Examples with answers:
test.smiles	inhibition at 11210 g/ha, %
Cn1nc(-c2cc(CC(=O)NCCCl)c(Cl)cc2F)c(Cl)c1C(F)(F)F	80
Cn1nc(-c2cc(N3CCOCC3)c(Cl)cc2F)c(Cl)c1C(F)(F)F	100
Cn1nc(C(F)F)c(Cl)c1-c1cc(F)ccc1F	60
Cn1nc(-c2cc([N+](=O)[O-])c(Cl)cc2Cl)c(Cl)c1C(F)(F)F	90

Here is another compound to look at.
Task item: I am curious: what inhibition at 11210 g/ha value has been reported for Cc1cc(-c2c(Cl)c(C(F)(F)F)nn2C)c(F)cc1Cl ?
Reply: 100

---

Test system: Velvetleaf
Assay: Pre-emergence herbicide test
Format: in vivo
Conditions: Abutilon theophrasti, 11.21 kg/ha, read-out: % plant inhibition (Vele)
Give measured inhibition at 11210 g/ha for each item. Keep answers brief.
Numbers only, in %.

Examples with answers:
test.smiles	value.reported
Cn1nc(C(F)(F)F)c(Cl)c1-c1ccc([N+](=O)[O-])cc1	90
Cc1cc(-c2c(Cl)c(C(F)F)nn2C)c(F)cc1Cl	100
CC(C)OC(=O)COCc1cc(-c2nn(C)c(C(F)(F)F)c2Cl)c(F)cc1Cl	100

Record inhibition at 11210 g/ha per entry; entries follow.
1. COc1cc(-c2c(Cl)c(C(F)(F)F)nn2C)c(F)cc1N
2. Cn1nc(C(F)(F)F)c(Cl)c1-c1cc(F)c([N+](=O)[O-])cc1F

Reply:
[50, 90]

---

Tested on: Seedling johnsongrass
Assay: Pre-emergence herbicide test
Type: in vivo
Conditions: Sorghum halepense, 11.21 kg/ha, read-out: % plant inhibition (Sejg)
measured.parameter: inhibition at 11210 g/ha (%)
One number for each entry, in %.

test.smiles	target.or.system	inhibition at 11210 g/ha (%)
Cn1nc(-c2cc(Oc3ccc(C(F)(F)F)cc3Cl)c(Cl)cc2F)c(Cl)c1C(F)(F)F	Seedling johnsongrass	20

Record inhibition at 11210 g/ha per entry; entries follow.
1. Cn1nc(-c2cc(F)c(Cl)cc2Cl)c(Cl)c1C(F)(F)F
2. Cn1nc(C(F)(F)F)c(Cl)c1-c1ccc(F)cc1F
3. Cn1nc(-c2cc(NC(=O)C(F)(F)F)c(Cl)cc2Cl)c(Cl)c1C(F)(F)F
4. Cc1cc(-c2c(Cl)c(C(F)(F)F)nn2C)c(F)cc1Cl
5. CC(=O)OCc1cc(-c2nn(C)c(C(F)(F)F)c2Cl)c(F)cc1Cl
6. COc1cc(-c2c(Cl)c(C(F)(F)F)nn2C)c(F)cc1[N+](=O)[O-]
7. Cn1nc(C(F)(F)F)c(Br)c1-c1cc(F)ccc1F

Reply:
100
50
30
100
80
60
10

Task item: # get_value(readout= inhibition at 11210 g/ha, system= Seedling johnsongrass) for C#CCOc1cc(-c2nn(C)c(C(F)(F)Cl)c2Cl)c(F)cc1Cl
Reply: 100

---

Tested on: Annual bluegrass
Test: Post-emergence herbicide test
Type: in vivo
Conditions: 1.12 kg/ha, read-out: % plant inhibition (Anbg)
Cut-off 90% on inhibition at 1120 g/ha, inclusive. At or above means MET; below means NOT MET.

Field: example entries. Status: answers known.
molecule	assigned.category
CC(C)CCOC(=O)COc1cc(-c2nn(C)c(C(F)(F)F)c2Cl)c(F)cc1Cl	NOT MET
CC(O)c1cc(-c2nn(C)c(C(F)(F)F)c2Cl)c(F)cc1Cl (stereo not shown)	NOT MET
CC(C)OC(=O)c1cc(-c2nn(C)c(C(F)(F)F)c2Cl)c(F)cc1Cl	MET
COc1cc(-c2c(Cl)c(C(F)(F)F)nn2C)c(F)cc1Cl	NOT MET
Cn1nc(-c2cc(C(C)(C)C#N)c(Cl)cc2F)c(Cl)c1C(F)(F)F	NOT MET

Task item: Given the entry CCOC(=O)C(C)OC(=O)c1cc(-c2nn(C)c(C(F)(F)F)c2Cl)c(F)cc1Cl (stereo not shown) , answer whether its inhibition at 1120 g/ha meets or surpasses 90%.
Reply: MET

Task item: Similarly, COC(=O)C=Cc1cc(-c2nn(C)c(C(F)(F)F)c2Cl)c(F)cc1Cl ?
Reply: NOT MET

---

Tested on: Seedling johnsongrass
Test: Post-emergence herbicide test
Assay type: in vivo
Details: Sorghum halepense, 11.21 kg/ha, read-out: % plant inhibition (Sejg)
Text: Topsoil is placed in aluminum pans having holes in the bottom and compacted to a depth of 0.95 to 1.27 cm from the top of the pan. A predetermined number of seeds of each of several dicotyledonous and monocotyledonous annual plant species and/or vegetative propagules for the perennial plant species are placed on the soil and pressed into the soil surface. The seeds and/or vegetative propagules are covered with soil and leveled. […]
measured.parameter: inhibition at 11210 g/ha (%)
Answers are plain numbers, in %.

Examples with answers:
test.smiles	units.text	inhibition at 11210 g/ha
CC(C)OC(=O)COCc1cc(-c2nn(C)c(C(F)(F)F)c2Cl)c(F)cc1Cl	%	100
Cn1nc(-c2ccc(Cl)cc2Cl)c(Cl)c1C(F)(F)F	%	90
Cn1nc(-c2cc([N+](=O)[O-])c(Cl)cc2Cl)c(Cl)c1C(F)(F)F	%	80
Cn1nc(C(F)(F)F)c(Cl)c1-c1cc(F)ccc1F	%	0
Cc1cc(-c2c(Cl)c(C(F)(F)F)nn2C)c(F)cc1Cl	%	70

Record inhibition at 11210 g/ha per entry; entries follow.
1. COc1cc(-c2c(Cl)c(C(F)(F)F)nn2C)c(F)cc1[N+](=O)[O-]
2. Cn1nc(-c2cc(CC(=O)O)c(Cl)cc2F)c(Cl)c1C(F)(F)F
3. Cn1nc(C(F)(F)F)c(Cl)c1-c1ccc(Cl)cc1F
4. Cn1nc(C(F)(F)F)c(Cl)c1-c1ccc([N+](=O)[O-])cc1
5. Cn1nc(C(F)(F)F)c(Cl)c1-c1cc(F)c(Cl)cc1Cl
6. COc1cc(F)c(-c2c(Cl)c(C(F)(F)F)nn2C)cc1F
7. Cc1cc(-c2c(Cl)c(C(F)F)nn2C)c(F)cc1Cl

Reply:
10
20
30
50
0
0
20

Record inhibition at 11210 g/ha per entry; entries follow.
1. Cn1nc(C(F)F)c(Cl)c1-c1cc(F)ccc1F
2. Cn1nc(C(F)(F)F)c(Cl)c1-c1ccc(F)cc1F
3. CCS(=O)(=O)N(c1cc(-c2nn(C)c(C(F)(F)F)c2Cl)c(Cl)cc1Cl)S(=O)(=O)CC
4. Cn1nc(-c2cc(Oc3ccc(C(F)(F)F)cc3Cl)c(Cl)cc2F)c(Cl)c1C(F)(F)F
5. Cn1nc(-c2cc(CBr)c(Cl)cc2F)c(Cl)c1C(F)(F)F
6. Cn1nc(C(F)(F)F)c(Cl)c1-c1ccc(Cl)cc1

Reply:
[0, 0, 0, 60, 90, 80]

---

Test system: Downy Brome
Assay: Post-emergence herbicide test
Assay type: in vivo
Settings: Bromus tectorum, 1.12 kg/ha, read-out: % plant inhibition (Dobr)
measured.parameter: inhibition at 1120 g/ha (%)
One number for each entry, in %.

test.smiles	inhibition at 1120 g/ha / %
COCCOCc1cc(-c2nn(C)c(C(F)(F)F)c2Cl)c(F)cc1Cl	100
Cn1nc(-c2cc(C(C)(C)C#N)c(Cl)cc2F)c(Cl)c1C(F)(F)F	30
Cn1nc(-c2cc(OCC(=O)O)c(Cl)cc2F)c(Cl)c1C(F)(F)F	20
COCOc1cc(-c2nn(C)c(C(F)(F)F)c2Cl)c(F)cc1Cl	100

Here is another compound to look at.
Task item: # get_value(readout= inhibition at 1120 g/ha, system= Downy Brome) for Cn1nc(-c2cc(CO)c(Cl)cc2F)c(Cl)c1C(F)(F)F
Reply: 20

src = patent US5530126A
